The binders listed here are annotated with their Anti-CD28 Fab signal in the presence of CD28.
target.system: anti-CD28 Fab (SEQ ID NOs: 202, 203)
Sequence (VH, as listed by the source, chain 1 of 2): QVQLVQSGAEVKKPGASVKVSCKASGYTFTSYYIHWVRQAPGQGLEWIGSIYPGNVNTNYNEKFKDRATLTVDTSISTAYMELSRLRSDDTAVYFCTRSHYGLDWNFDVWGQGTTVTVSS
Sequence (VL, as listed by the source, chain 2 of 2): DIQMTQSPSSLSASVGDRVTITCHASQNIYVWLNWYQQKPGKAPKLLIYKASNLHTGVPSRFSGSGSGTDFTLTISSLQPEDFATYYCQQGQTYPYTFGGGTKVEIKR
experimental.protocol: phage ELISA, Fab on plate, CD28 antigen as competitor;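 note: wells pre-incubated with CD28 antigen in blocking buffer (reference: blocking buffer only) before adding crude clonal phage supernatant, bound phage read with HRP-coupled anti-M13 antibody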
assay.endpoint: Anti-CD28 Fab signal in the presence of CD28

SCADGFNYVWPLCF [Phage-1198]; 0.08
ICAAGFIWSWPACF [Phage-1101]; 0.08
TCSAGATYMWPACF [Phage-1120]; 0.1
TCAAGATYSWPDCF [Phage-1102]; 0.06
SCSAGATYTWPACL [Phage-1158]; 0.07
TCAAGATYEWPSCL [Phage-1165]; 0.09
TCAAGVHFGWPLCF [Phage-1107]; 0.07
SCSAGATYEWPYCF [Phage-1113]; 0.06
